# Assay System: D(2) dopamine receptor (Rattus norvegicus)
# Sequence (P61169 whole entry): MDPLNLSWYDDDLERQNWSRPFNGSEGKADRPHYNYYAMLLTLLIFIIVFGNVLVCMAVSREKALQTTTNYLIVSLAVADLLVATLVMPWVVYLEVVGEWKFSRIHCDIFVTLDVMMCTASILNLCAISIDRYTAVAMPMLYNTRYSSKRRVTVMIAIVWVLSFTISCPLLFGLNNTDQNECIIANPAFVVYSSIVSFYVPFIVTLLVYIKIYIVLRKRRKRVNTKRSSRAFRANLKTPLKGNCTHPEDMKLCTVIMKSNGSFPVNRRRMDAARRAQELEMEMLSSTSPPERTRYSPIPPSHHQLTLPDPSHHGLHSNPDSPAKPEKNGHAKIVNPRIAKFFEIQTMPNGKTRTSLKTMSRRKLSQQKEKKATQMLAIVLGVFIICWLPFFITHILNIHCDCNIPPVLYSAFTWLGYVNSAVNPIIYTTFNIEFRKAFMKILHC
# Experiment: Ability to inhibit [3H]spiperone binding to Dopamine receptor D2 in rat corpus striatum
Attribute: pIC50
// pIC50: -log10(molar conc.)

Worked cases, answers included:
Smiles Representation: COC(=O)c1cccnc1N1CCN(CCCCN2C(=O)SC3(CCCC3)C2=O)CC1
pIC50: 6.86

Smiles Representation: COc1cccnc1N1CCN(CCCCN2C(=O)SC3(CCCC3)C2=O)CC1
pIC50: 7.10

Smiles Representation: N#Cc1cccnc1N1CCN(CCCCN2C(=O)SC3(CCCC3)C2=O)CC1
pIC50: 7.47

Smiles Representation: Cc1nnc(-c2cccnc2N2CCN(CCCCN3C(=O)CC4(CCCC4)CC3=O)CC2)o1
pIC50: 6.21

Smiles Representation: CC1(C)CC(=O)N(CCCCN2CCN(c3ncccc3Cl)CC2)C(=O)C1
pIC50: 6.44

Query string: Given `O=Cc1cccnc1N1CCN(CCCCN2C(=O)SC3(CCCC3)C2=O)CC1` , state its recorded pIC50.
Result string: 6.89

Query string: Given `O=C1SC2(CCCC2)C(=O)N1CCCCN1CCN(c2ccccn2)CC1` , state its recorded pIC50.
Result string: 6.21

Query string: Given `Cc1cccnc1N1CCN(CCCCN2C(=O)CC3(CCCC3)CC2=O)CC1` , state its recorded pIC50.
Result string: 6.32

Query string: Given `O=C1SC2(CCCC2)C(=O)N1CCCCN1CCN(c2ncccc2[N+](=O)[O-])CC1` , state its recorded pIC50.
Result string: 7.16

Query string: Given `Cc1cccnc1N1CCN(CCCCN2C(=O)SC3(CCCC3)C2=O)CC1` , state its recorded pIC50.
Result string: 6.20

Query string: Given `CC1(C)CC(=O)N(CCCCN2CCN(c3ncccc3-c3ccccc3)CC2)C(=O)C1` , state its recorded pIC50.
Result string: 6.96

Query string: Given `CO/N=C\c1cccnc1N1CCN(CCCCN2C(=O)SC3(CCCC3)C2=O)CC1` , state its recorded pIC50.
Result string: 6.37

----------
# Assay System: Adrenergic receptor alpha-1 (Rattus norvegicus, UniProt P15823+P23944+P43140)
# Experiment: Ability to inhibit [3H]WB-4101 binding to rat cortical alpha-1-adrenergic receptor
# Type: protein assay
Experimental Readout: IC50 (nM)
The response must be a number in nM with no trailing unit.

Smiles Representation: O=Cc1cccnc1N1CCN(CCCCN2C(=O)SC3(CCCC3)C2=O)CC1
Units Text: nM
Recorded Number: 9.6

Smiles Representation: O=C1SC2(CCCC2)C(=O)N1CCCCN1CCN(c2ncccc2[N+](=O)[O-])CC1
Units Text: nM
Recorded Number: 34.1

Smiles Representation: COC(=O)c1cccnc1N1CCN(CCCCN2C(=O)SC3(CCCC3)C2=O)CC1
Units Text: nM
Recorded Number: 7.8

Smiles Representation: COC(=O)c1cccnc1N1CCN(CCCCN2C(=O)CC(C)(C)CC2=O)CC1
Units Text: nM
Recorded Number: 36.9

Smiles Representation: N#Cc1cccnc1N1CCN(CCCCN2C(=O)CSC2=O)CC1
Units Text: nM
Recorded Number: 39

Query string: Given `N#Cc1cccnc1N1CCN(CCCCN2C(=O)SC3(CCCC3)C2=O)CC1` , state its recorded IC50.
Result string: 35

Query string: Given `COc1cccc(N2CCN(CCCCN3C(=O)CC(C)(C)CC3=O)CC2)n1` , state its recorded IC50.
Result string: 68

Query string: Given `O=C1SC2(CCCC2)C(=O)N1CCCCN1CCN(c2ncccc2Cl)CC1` , state its recorded IC50.
Result string: 19.9

----------
Attribute: ED50
# Species: Rattus norvegicus
# Experiment: Inhibition of the rat conditioned avoidance response, CAR (Tranquilizing activity, peroral)
# Type: functional
# Test Conditions: po
The response must be a number in mg/kg with no trailing unit.

Worked cases, answers included:
Smiles Representation: O=C1SC2(CCCC2)C(=O)N1CCCCN1CCN(c2ncccc2[N+](=O)[O-])CC1
Units Text: mg/kg
ED50: 25.3
//
Smiles Representation: Cc1cccnc1N1CCN(CCCCN2C(=O)CC3(CCCC3)CC2=O)CC1
Units Text: mg/kg
ED50: 46.4
//
Smiles Representation: COc1cccnc1N1CCN(CCCCN2C(=O)SC3(CCCC3)C2=O)CC1
Units Text: mg/kg
ED50: 18.8
//
Smiles Representation: O=C1SC2(CCCC2)C(=O)N1CCCCN1CCN(c2ccccn2)CC1
Units Text: mg/kg
ED50: 20.8
//
Smiles Representation: O=Cc1cccnc1N1CCN(CCCCN2C(=O)SC3(CCCC3)C2=O)CC1
Units Text: mg/kg
ED50: 60

Query string: Given `O=C1COCC(=O)N1CCCCN1CCN(c2ncccc2Cl)CC1` , state its recorded ED50.
Result string: 59.8

Query string: Given `CC1(C)CC(=O)N(CCCCN2CCN(c3ncccc3-c3ccccc3)CC2)C(=O)C1` , state its recorded ED50.
Result string: 67.6

Query string: Given `COC(=O)c1cccnc1N1CCN(CCCCN2C(=O)SC3(CCCC3)C2=O)CC1` , state its recorded ED50.
Result string: 29.8

----------
Attribute: IC50
# Assay System: UniProt P61169
# Experiment: Ability to inhibit [3H]spiperone binding to Dopamine receptor D2 in rat corpus striatum
The response must be a number in nM with no trailing unit.

Smiles Representation: O=C1SC2(CCCC2)C(=O)N1CCCCN1CCN(c2ncccc2Cl)CC1
IC50 (nM): 160

Query string: Given `O=C1SC2(CCCC2)C(=O)N1CCCCN1CCN(c2ncccc2-c2ccccc2)CC1` , state its recorded IC50.
Result string: 236

----------
# Species: Rattus norvegicus
# Experiment: Inhibition of the rat conditioned avoidance response, CAR (Tranquilizing activity, peroral)
# Assay type: functional
# Test Conditions: po
Experimental Readout: ED50 (mg/kg)
The response must be a number in mg/kg with no trailing unit.

Worked cases, answers included:
Smiles Representation: COc1cccc(N2CCN(CCCCN3C(=O)SC4(CCCC4)C3=O)CC2)n1
Units Text: mg/kg
Recorded Number: 35.9
//
Smiles Representation: O=C1COCC(=O)N1CCCCN1CCN(c2ncccc2[N+](=O)[O-])CC1
Units Text: mg/kg
Recorded Number: 55
//
Smiles Representation: Cc1cccnc1N1CCN(CCCCN2C(=O)SC3(CCCC3)C2=O)CC1
Units Text: mg/kg
Recorded Number: 46.4

Query string: Given `CO/N=C\c1cccnc1N1CCN(CCCCN2C(=O)SC3(CCCC3)C2=O)CC1` , state its recorded ED50.
Result string: 71.3

Query string: Given `Cc1nnc(-c2cccnc2N2CCN(CCCCN3C(=O)CC4(CCCC4)CC3=O)CC2)o1` , state its recorded ED50.
Result string: 70.9

----------
# Assay System: Adrenergic receptor alpha-1 (Rattus norvegicus, UniProt P15823+P23944+P43140)
# Experiment: Ability to inhibit [3H]WB-4101 binding to rat cortical alpha-1-adrenergic receptor
# Format: protein assay
Experimental Readout: IC50 (nM)
The response must be a number in nM with no trailing unit.

Smiles Representation: O=C1COCC(=O)N1CCCCN1CCN(c2ncccc2Cl)CC1
Assay System: Adrenergic receptor alpha-1 (Rattus norvegicus, UniProt P15823+P23944+P43140)
IC50, nM: 16

Smiles Representation: O=C1COCC(=O)N1CCCCN1CCN(c2ncccc2[N+](=O)[O-])CC1
Assay System: Adrenergic receptor alpha-1 (Rattus norvegicus, UniProt P15823+P23944+P43140)
IC50, nM: 38.3

Query string: What IC50 appears in the records for this compound with Adrenergic receptor alpha-1 (Rattus norvegicus, UniProt P15823+P23944+P43140)? `CO/N=C\c1cccnc1N1CCN(CCCCN2C(=O)SC3(CCCC3)C2=O)CC1`
Result string: 67.4

Query string: What IC50 appears in the records for this compound with Adrenergic receptor alpha-1 (Rattus norvegicus, UniProt P15823+P23944+P43140)? `O=C1COCC(=O)N1CCCCN1CCN(c2ncccc2-c2ccccc2)CC1`
Result string: 16
